target: Baculoviral IAP repeat-containing protein 5 (Homo sapiens)
Sequence (O15392 whole entry): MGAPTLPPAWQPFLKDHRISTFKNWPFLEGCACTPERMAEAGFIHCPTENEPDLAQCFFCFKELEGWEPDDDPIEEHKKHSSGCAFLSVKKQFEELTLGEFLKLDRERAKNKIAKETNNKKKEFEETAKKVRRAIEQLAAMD
Exercise: state measured pKd for each of the molecules provided.
Answers are plain numbers, as −log10 of the molar value.

Task: # pKd lookup, item N#Cc1c(-c2ccccc2)cc(-c2ccccc2O)[nH]c1=O
Output: 4.12

Task: # pKd lookup, item Cc1ccnc(NC(=O)C2CCNCC2)c1
Output: 3.89

Task: # pKd lookup, item N#Cc1c(-c2ccccc2)cc(-c2cc(Br)ccc2O)[nH]c1=O
Output: 5.30

// next entry
Task: # pKd lookup, item CCc1oc2ccccc2c1C(=O)c1cc(I)c(O)c(I)c1
Output: 5.10

====

assay: Solubility at pH 7.4 by shake flask method; type: physicochemical; conditions: buffer
assay-endpoint: solubility thermodynamic (µM)
Answers are plain numbers, in µM.

Task: # solubility thermodynamic lookup, item CC(=O)N1CCC(C(=O)N(C)Cc2cc(Cl)cc(-c3cc(-c4cc(C(F)(F)F)ccc4Cl)c(C#N)c(=O)[nH]3)c2O)CC1
Output: 300

Next:
Task: # solubility thermodynamic lookup, item COCC(=O)N1CCC(C(=O)N(C)Cc2cc(Cl)cc(-c3cc(-c4cc(C(F)(F)F)ccc4Cl)c(C#N)c(=O)[nH]3)c2O)CC1
Output: 138

====

Heads up, these molecules all have Kd values measured for Baculoviral IAP repeat-containing protein 5 (Homo sapiens).

Task: # Kd lookup, item Clc1cccc(Nc2ccc3ccccc3c2)c1
Output: < 10 µM

Task: # Kd lookup, item CC1(C)NC(=O)N(C/C(COc2ccc(-c3ccc(OC(F)(F)F)cc3)cc2)=N/O)C1=O
Output: < 10 µM

// next entry
Task: # Kd lookup, item N#Cc1c(-c2cc(-c3ccccc3)ccc2Cl)cc(-c2cc(Br)ccc2O)[nH]c1=O
Output: > 4.3 µM
